Cited source: ChEMBL document CHEMBL1201862

study.target: Genome polyprotein (dengue virus type 2)
Sequence (P29990 2492-3391 limits assumed): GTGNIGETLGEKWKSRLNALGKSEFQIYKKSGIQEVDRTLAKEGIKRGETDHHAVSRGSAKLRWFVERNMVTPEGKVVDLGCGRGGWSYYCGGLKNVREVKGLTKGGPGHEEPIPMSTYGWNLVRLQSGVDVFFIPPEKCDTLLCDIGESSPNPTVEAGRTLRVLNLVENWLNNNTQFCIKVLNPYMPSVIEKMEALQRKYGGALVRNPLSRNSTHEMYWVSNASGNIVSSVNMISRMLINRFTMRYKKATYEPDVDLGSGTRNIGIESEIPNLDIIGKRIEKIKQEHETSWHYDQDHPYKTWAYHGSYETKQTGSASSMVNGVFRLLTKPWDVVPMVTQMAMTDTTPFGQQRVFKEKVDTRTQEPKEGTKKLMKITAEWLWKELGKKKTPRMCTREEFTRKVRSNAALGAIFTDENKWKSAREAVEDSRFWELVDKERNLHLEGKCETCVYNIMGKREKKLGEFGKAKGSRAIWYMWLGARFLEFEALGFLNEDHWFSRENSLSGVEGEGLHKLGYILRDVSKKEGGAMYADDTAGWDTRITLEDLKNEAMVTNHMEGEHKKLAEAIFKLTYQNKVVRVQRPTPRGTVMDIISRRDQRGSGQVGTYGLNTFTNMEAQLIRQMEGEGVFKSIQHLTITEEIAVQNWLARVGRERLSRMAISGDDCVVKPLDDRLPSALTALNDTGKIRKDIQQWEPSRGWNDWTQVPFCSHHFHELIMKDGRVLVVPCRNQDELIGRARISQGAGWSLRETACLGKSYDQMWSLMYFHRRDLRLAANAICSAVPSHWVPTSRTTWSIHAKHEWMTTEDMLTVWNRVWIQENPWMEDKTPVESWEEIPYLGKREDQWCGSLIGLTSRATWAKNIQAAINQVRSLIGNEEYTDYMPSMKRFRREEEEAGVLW
test.description: flavivirus cap methylation enzyme inhibition – biochemical, confirmation dose response, primary screen (AID 588689)
Assay type: functional
Activity calls are given as the source filed them. How the calls were made is not given here.
measurement.kind: IC50

input: So what does the record say about IC50 for O=C(O)COc1ccccc1/C=C1\C(=O)NC(=O)N(CCC2=CCCCC2)C1=O ?
output: > 100 µM (active)

input: Give its IC50 value. Item: COc1ccc(-c2cc(-c3ccc(Cl)cc3)c(C#N)c(SCC(=O)O)n2)cc1
output: 50 µM (active)

input: Given the entry O=C(O)c1cccc(Nc2cc(Cl)c3nonc3c2[N+](=O)[O-])c1 , report its measured IC50.
output: 10.7 µM (active)
